Cited source for all entries: patent US20040009534A1

- Target or system: T1, human plasma IgG3 (human, UniProt P01860-1 1-377)
- T1 construct: Plasma-derived IgG isoform, bought
- T1 sequence (P01860 other isoform, or with tags, fused parts or gaps): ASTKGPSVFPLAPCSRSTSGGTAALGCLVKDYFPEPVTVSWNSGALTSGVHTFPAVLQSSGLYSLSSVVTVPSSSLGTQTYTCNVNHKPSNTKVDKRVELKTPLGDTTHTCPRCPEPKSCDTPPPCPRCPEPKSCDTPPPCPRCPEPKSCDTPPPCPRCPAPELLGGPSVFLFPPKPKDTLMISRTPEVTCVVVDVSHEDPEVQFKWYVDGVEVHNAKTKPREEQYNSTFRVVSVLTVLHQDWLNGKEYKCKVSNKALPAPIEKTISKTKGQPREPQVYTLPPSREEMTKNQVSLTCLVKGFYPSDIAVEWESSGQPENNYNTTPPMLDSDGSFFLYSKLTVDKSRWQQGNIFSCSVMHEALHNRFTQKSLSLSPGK
- Procedure text: Oregon Green peptide, pH 4.0 - salt
Each entry below carries its recorded Kd.
Entry rule: numbers only, all in nM.

Binder | Kd, nM
AGAATCSTSYWYYQWFCTDSPGPEGGGK (N-terminal acetyl (Ac-); C-terminal amide (-NH2); Oregon Green labeled, Synthesised by BACHEM, Oregon Green labeled, HPLC purified) [DX398] | 20
AGPHNCDDHYWYCKWFPGPEGGGK (N-terminal acetyl (Ac-); C-terminal amide (-NH2); Oregon Green labeled, Synthesised by BACHEM, Oregon Green labeled, HPLC purified) [DX389] | 2500
AGTYWCTFWELPCDPAPGPEGGGK (N-terminal acetyl (Ac-); C-terminal amide (-NH2); Oregon Green labeled, Synthesised by BACHEM, Oregon Green labeled, HPLC purified) [DX404] | 10
AGYWYCWFPDRPECPLYPGPEGGGK (N-terminal acetyl (Ac-); C-terminal amide (-NH2); Oregon Green labeled, Synthesised by BACHEM, Oregon Green labeled, HPLC purified) [DX413] | 840
AGSYWCKIWDVCPQSPGPEGGGK (N-terminal acetyl (Ac-); C-terminal amide (-NH2); Oregon Green labeled, Synthesised by BACHEM, Oregon Green labeled, HPLC purified) [DX392] | 320

-- ask Tell us which Kd value is on record for AGKYWCNLWGVCPANPGPEGGGK (N-terminal acetyl (Ac-); C-terminal amide (-NH2); Oregon Green labeled, Synthesised by BACHEM, Oregon Green labeled, HPLC purified) [DX395]
-- reply 1000
